molecular target: Human recombinant PDE2A (hPDE2A) (Homo sapiens); construct: His tag (inferred from metal chelate purification); made in house; host or cells: Sf9 insect cells (baculovirus); assay: In vitro assay PDE2A (SPA, 3H-cGMP hydrolysis); assay type: biochemical; details: read-out: hPDE2A Emax
reportedMetric: Emax (%)

linenotation=Cc1cc(C(=O)N2CC[C@@H](C)[C@H](c3cc(C(F)F)nc4ncnn34)C2)cc(C(F)F)n1 reportedmetric=Emax units=% valueobserved=101
linenotation=COc1cc(C(=O)N2CC[C@@H](C)[C@H](c3cc(C(F)F)nc4ncnn34)C2)cc(C2CC2)n1 reportedmetric=Emax units=% valueobserved=99
linenotation=O=C(c1ccc2ncc(F)cc2c1)N1[C@H]2CC[C@H](c3cc(C(F)F)nc4ncnn34)[C@@H]1CC2 reportedmetric=Emax units=% valueobserved=99
linenotation=C[C@@H]1CCN(C(=O)c2ccnnc2)C[C@H]1c1cc(C(F)F)nc2ncnn12 reportedmetric=Emax units=% valueobserved=95
linenotation=C[C@@H]1CCN(C(=O)c2cc(Cl)nc(Cl)c2F)C[C@H]1c1cc(C(F)F)nc2ncnn12 reportedmetric=Emax units=% valueobserved=98
linenotation=Cc1cc(C(=O)N2CC[C@@H](C)[C@H](c3cc(C(F)F)nc4ncnn34)C2)on1 reportedmetric=Emax units=% valueobserved=99
linenotation=C[C@@H]1CCN(C(=O)c2cnc3ccccc3c2)C[C@H]1c1cc(C(F)F)nc2ncnn12 reportedmetric=Emax units=% valueobserved=100

---

target: Human recombinant PDE10A (hPDE10A) (Homo sapiens); construct: His tag (inferred from metal chelate purification); made in house; host or cells: Sf9 insect cells (baculovirus); assay: In vitro assay PDE10A, human clone (SPA, 3H-cAMP hydrolysis); assay type: biochemical; conditions: human clone (h), default; read-out: hPDE10A2 Emax
reportedMetric: Emax (%)

compound=Cc1cc(C(=O)N2CC[C@@H](C)[C@@](F)(c3cc(C(F)F)nc4ncnn34)C2)cc(C)n1 system="Human recombinant PDE10A (hPDE10A) (Homo sapiens)" units=% valueobserved=1
compound=Cc1cc(C(=O)N2CC[C@@H](C)[C@H](c3cc(C(F)F)nc4ncnn34)C2)c(F)cn1 system="Human recombinant PDE10A (hPDE10A) (Homo sapiens)" units=% valueobserved=89
compound=COc1ncc(C(=O)N2CC[C@@H](C)[C@H](c3cc(C(F)F)nc4ncnn34)C2)cc1Cl system="Human recombinant PDE10A (hPDE10A) (Homo sapiens)" units=% valueobserved=100
compound=Cc1ccc2cc(C(=O)N3CC[C@@H](C)[C@H](c4cc(C(F)F)nc5ncnn45)C3)c(C)nc2c1 system="Human recombinant PDE10A (hPDE10A) (Homo sapiens)" units=% valueobserved=97
compound=C[C@@H]1CCN(C(=O)c2ccc(F)c(C(F)(F)F)c2)C[C@H]1c1cc(C(F)F)nc2ncnn12 system="Human recombinant PDE10A (hPDE10A) (Homo sapiens)" units=% valueobserved=97

A = C[C@@H]1CCN(C(=O)c2ccc(Cl)c(C3CC3)c2)C[C@H]1c1cc(C(F)F)nc2ncnn12
B = Cc1csc(C(=O)N2CCC[C@](C)(c3cc(C(F)F)nc4ncnn34)C2)c1 (single isomer, unassigned)
Req: Determine, for A and B , which has the greater value of Emax. Response format: the label of the selected entry.
Resp: A

1 = Cc1cc([C@@H]2CN(C(=O)c3oc4ccccc4c3C)CC[C@H]2C)n2ncnc2n1
2 = Cc1nc(C(=O)N2CC[C@@H](C)[C@H](c3cc(C(F)F)nc4ncnn34)C2)c(C)o1
3 = Cc1cc(C(=O)N2CC[C@@H](C)[C@](F)(c3cc(C(F)F)nc4ncnn34)C2)cc(C)n1
Req: # desc sort on Emax across 3 compounds Use the labels to give the requested order.
Resp: 1, 2, 3

---

target: Human recombinant PDE2A (hPDE2A) (Homo sapiens, UniProt O00408); construct: His tag (inferred from metal chelate purification); made in house; host or cells: Sf9 insect cells (baculovirus); assay: In vitro assay PDE2A (SPA, 3H-cGMP hydrolysis); assay type: biochemical; settings: human recombinant PDE2A; read-out: hPDE2A Emax
Sequence (O00408 whole entry): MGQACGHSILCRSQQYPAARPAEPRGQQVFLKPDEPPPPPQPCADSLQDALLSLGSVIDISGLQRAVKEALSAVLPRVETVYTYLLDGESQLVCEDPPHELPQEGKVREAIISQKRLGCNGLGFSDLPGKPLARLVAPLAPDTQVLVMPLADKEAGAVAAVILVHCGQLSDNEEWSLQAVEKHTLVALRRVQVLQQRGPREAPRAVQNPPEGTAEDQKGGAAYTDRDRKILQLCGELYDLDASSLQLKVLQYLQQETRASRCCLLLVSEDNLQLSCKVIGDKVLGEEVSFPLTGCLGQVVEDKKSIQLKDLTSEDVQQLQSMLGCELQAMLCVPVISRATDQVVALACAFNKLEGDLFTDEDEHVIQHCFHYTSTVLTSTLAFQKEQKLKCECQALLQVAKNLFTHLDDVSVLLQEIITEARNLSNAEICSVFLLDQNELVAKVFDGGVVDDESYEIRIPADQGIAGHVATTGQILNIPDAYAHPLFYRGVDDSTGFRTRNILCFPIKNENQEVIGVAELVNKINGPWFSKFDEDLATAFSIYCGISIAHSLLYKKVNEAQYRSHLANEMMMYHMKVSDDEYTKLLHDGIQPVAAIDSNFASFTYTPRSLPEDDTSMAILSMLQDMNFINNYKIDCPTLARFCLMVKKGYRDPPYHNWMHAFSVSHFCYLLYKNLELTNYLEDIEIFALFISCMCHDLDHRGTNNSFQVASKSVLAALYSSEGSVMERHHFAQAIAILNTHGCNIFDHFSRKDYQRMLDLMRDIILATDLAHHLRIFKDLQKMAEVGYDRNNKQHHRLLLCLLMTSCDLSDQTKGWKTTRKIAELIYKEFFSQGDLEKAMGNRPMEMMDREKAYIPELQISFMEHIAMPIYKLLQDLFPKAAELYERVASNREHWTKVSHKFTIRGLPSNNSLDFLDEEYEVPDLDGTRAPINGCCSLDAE
reportedMetric: Emax (%)

linenotation=Cc1cccnc1C(=O)N1CC[C@@H](C)[C@H](c2cc(C(F)F)nc3ncnn23)C1 valueobserved=95
linenotation=CC(C)c1n[nH]cc1C(=O)N1CC[C@@H](C)[C@H](c2cc(C(F)F)nc3ncnn23)C1 valueobserved=101
linenotation=Cc1cc(C)nc(C(=O)N2CC[C@@H](C)[C@H](c3cc(C(F)F)nc4ncnn34)C2)c1 valueobserved=100
linenotation=COc1c(C)cc(C(=O)N2CC[C@@H](C)[C@@](F)(c3cc(C(F)F)nc4ncnn34)C2)cc1C valueobserved=81
linenotation=C[C@@H]1CCN(C(=O)c2ccncc2N)C[C@H]1c1cc(C(F)F)nc2ncnn12 valueobserved=100
linenotation=C[C@@H]1CCN(C(=O)c2ccc(C(F)(F)F)nc2Cl)C[C@H]1c1cc(C(F)F)nc2ncnn12 valueobserved=97
linenotation=C[C@H]1CCN(C(=O)c2ccc3ncsc3c2)C[C@]1(F)c1cc(C(F)F)nc2ncnn12 valueobserved=88

---

target: Human recombinant PDE10A (hPDE10A) (Homo sapiens, UniProt Q9Y233); construct: His tag (inferred from metal chelate purification); made in house; host or cells: Sf9 insect cells (baculovirus); assay: In vitro assay PDE10A, human clone (SPA, 3H-cAMP hydrolysis); assay type: biochemical; conditions: human clone by default (no (r) mark); read-out: hPDE10A2 or rPDE10A2 pIC50 (converted)
Sequence (Q9Y233 267-1055): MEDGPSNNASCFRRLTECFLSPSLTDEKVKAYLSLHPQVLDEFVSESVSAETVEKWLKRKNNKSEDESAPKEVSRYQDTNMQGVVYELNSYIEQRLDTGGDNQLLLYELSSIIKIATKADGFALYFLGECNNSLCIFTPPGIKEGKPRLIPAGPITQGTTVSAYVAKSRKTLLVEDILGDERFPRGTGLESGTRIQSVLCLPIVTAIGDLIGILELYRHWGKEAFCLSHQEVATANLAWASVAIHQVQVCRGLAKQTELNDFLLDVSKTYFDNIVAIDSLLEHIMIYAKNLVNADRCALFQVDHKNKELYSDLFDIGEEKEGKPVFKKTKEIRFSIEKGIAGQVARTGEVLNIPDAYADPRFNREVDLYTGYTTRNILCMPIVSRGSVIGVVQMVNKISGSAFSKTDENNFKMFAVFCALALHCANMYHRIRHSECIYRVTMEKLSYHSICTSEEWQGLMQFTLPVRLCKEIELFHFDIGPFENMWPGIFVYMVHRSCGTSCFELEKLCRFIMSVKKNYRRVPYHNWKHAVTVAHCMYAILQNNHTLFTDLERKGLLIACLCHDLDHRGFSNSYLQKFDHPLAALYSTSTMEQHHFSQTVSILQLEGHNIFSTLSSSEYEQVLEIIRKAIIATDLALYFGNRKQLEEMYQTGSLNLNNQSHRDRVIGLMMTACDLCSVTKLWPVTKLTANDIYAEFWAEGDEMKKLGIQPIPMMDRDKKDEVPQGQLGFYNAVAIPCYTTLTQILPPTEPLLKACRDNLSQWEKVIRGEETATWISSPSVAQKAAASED
reportedMetric: IC50 (nM)

linenotation=C[C@@H]1CCN(C(=O)c2ccc3ccccc3c2)C[C@H]1c1cc(C(F)F)nc2ncnn12 reportedmetric=IC50 valueobserved=14.5

A = COc1cccc2c1OCC(C(=O)N1CC[C@@H](C)[C@H](c3cc(C(F)F)nc4ncnn34)C1)=C2
B = Cc1cc(C(=O)N2CC[C@@H](C)[C@H](c3cc(C(F)F)nc4ncnn34)C2)c(F)c(C(F)(F)F)n1
Req: Which entry shows the lesser value of IC50 here, A or B ? Response format: the label of the selected entry.
Resp: A

---

target: Human recombinant PDE2A (hPDE2A) (Homo sapiens, UniProt O00408); construct: His tag (inferred from metal chelate purification); made in house; host or cells: Sf9 insect cells (baculovirus); assay: In vitro assay PDE2A (SPA, 3H-cGMP hydrolysis); assay type: biochemical; settings: read-out: hPDE2A Emax
reportedMetric: Emax (%)

compound=C[C@@H]1CCN(C(=O)c2ccncc2C(F)(F)F)C[C@H]1c1cc(C(F)F)nc2ncnn12 reportedmetric=Emax units=% valueobserved=96
compound=C[C@@H]1CCN(C(=O)c2ccc(F)c(O)c2)C[C@H]1c1cc(C(F)F)nc2ncnn12 reportedmetric=Emax units=% valueobserved=100
compound=COc1nc(C)cc(C(=O)N2CC[C@@H](C)[C@H](c3cc(C(F)F)nc4ncnn34)C2)c1F reportedmetric=Emax units=% valueobserved=100

I = C[C@@H]1CCN(C(=O)c2ccc(F)c(OC(F)F)c2)C[C@H]1c1cc(C(F)F)nc2ncnn12
II = Cc1ccc(C(=O)N2CCC[C@](C)(c3cc(C(F)F)nc4ncnn34)C2)c(C)n1 (single isomer, unassigned)
Req: Determine, for I and II , which has the greater value of Emax. Response format: the label of the selected entry.
Resp: I

---

target: Human recombinant PDE2A (hPDE2A) (Homo sapiens, UniProt O00408); construct: His tag (inferred from metal chelate purification); made in house; host or cells: Sf9 insect cells (baculovirus); test: In vitro assay PDE2A (SPA, 3H-cGMP hydrolysis); assay type: biochemical; conditions: human recombinant PDE2A; read-out: hPDE2A Emax
reportedMetric: Emax (%)

Answered cases to consult:
compound="C[C@@H]1CCN(C(=O)c2ccc(F)c(O)c2)C[C@H]1c1cc(C(F)F)nc2ncnn12 [Compound 186]" valueobserved=100
compound="C[C@@H]1CCN(C(=O)c2ccc(F)c(OC(F)F)c2)C[C@H]1c1cc(C(F)F)nc2ncnn12 [Compound 193]" valueobserved=100

A = C[C@@H]1CCN(C(=O)c2cnc(Br)s2)C[C@H]1c1cc(C(F)F)nc2ncnn12 [Compound 182]
B = Cc1nn(C)cc1C(=O)N1CCC[C@](C)(c2cc(C(F)F)nc3ncnn23)C1 (single isomer, unassigned) [Compound 207]
Req: Which entry shows the lesser value of Emax here, A or B ? Response format: the label of the selected entry.
Resp: B

---

Target: Human recombinant PDE3A (hPDE3A) (Homo sapiens, UniProt Q14432)
Construct: purchased Scottish Biomedical; host or cells: Sf9 insect cells
Sequence (Q14432 whole entry): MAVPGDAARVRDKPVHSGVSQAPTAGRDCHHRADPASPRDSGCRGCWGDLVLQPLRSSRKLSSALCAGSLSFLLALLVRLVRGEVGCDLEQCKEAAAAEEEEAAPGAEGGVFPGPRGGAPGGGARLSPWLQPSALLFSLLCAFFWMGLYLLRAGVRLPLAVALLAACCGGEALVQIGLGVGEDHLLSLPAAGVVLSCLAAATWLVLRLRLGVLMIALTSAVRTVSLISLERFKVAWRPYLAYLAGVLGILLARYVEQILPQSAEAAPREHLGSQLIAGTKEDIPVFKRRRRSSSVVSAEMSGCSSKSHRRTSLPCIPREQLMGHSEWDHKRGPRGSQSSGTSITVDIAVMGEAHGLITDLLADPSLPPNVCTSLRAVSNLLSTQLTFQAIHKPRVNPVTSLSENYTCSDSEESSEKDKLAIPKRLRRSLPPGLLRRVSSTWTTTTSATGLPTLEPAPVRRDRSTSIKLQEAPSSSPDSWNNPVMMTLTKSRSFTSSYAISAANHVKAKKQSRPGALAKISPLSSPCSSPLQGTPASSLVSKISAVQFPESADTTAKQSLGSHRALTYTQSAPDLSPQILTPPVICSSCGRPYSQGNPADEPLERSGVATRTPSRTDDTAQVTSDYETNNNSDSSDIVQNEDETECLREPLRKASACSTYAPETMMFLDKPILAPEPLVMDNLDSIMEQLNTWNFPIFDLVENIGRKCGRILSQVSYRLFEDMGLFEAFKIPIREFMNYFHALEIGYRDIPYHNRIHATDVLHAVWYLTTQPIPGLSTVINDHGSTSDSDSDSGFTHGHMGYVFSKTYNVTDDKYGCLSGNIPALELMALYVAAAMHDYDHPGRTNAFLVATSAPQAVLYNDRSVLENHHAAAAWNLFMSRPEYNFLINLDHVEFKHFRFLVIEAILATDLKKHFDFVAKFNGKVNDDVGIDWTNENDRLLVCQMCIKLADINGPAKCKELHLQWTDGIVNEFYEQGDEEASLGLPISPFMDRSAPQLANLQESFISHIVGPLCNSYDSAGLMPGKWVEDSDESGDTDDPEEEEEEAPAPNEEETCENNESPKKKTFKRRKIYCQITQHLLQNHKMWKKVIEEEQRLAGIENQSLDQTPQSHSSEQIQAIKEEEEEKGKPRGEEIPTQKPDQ
Experiment: In vitro assay PDE3A (SPA, 3H-cAMP hydrolysis);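 further: the method names PDE3A and the table heading PDE3B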
Type: biochemical
Conditions: hPDE3B pIC50; read-out: pIC50 (converted)
Experimental: Human recombinant PDE3A (hPDE3A) was supplied as a partially purified insect cell lysate by Scottish Biomedical, it was cloned from human brain and expressed in Sf9 cells. Tested compounds were dissolved and diluted in 100% DMSO to a concentration 100 fold of the final concentration in the assay. […] After sedimentation of the beads during 30 min the radioactivity was measured in a Perkin Elmer Topcount scintillation counter and results were expressed as cpm. […]
reportedMetric: IC50 (µM)

compound="Cc1cc([C@@H]2CN(C(=O)c3ccn(C)c3)CC[C@H]2C)n2ncnc2n1 [Compound 14]" system="Human recombinant PDE3A (hPDE3A) (Homo sapiens, UniProt Q14432)" valueobserved=4.68
compound="Cc1cc(C(=O)N2CC[C@@H](C)[C@H](c3cc(C)nc4ncnn34)C2)cc(C)n1 [Compound 1a]" system="Human recombinant PDE3A (hPDE3A) (Homo sapiens, UniProt Q14432)" valueobserved=2.09
compound="C[C@@H]1CCN(C(=O)c2cnc3c(Cl)cccc3c2)C[C@H]1c1cc(C(F)F)nc2ncnn12 [Compound 329]" system="Human recombinant PDE3A (hPDE3A) (Homo sapiens, UniProt Q14432)" valueobserved=0.204
compound="O=C(c1cnc2c(F)cccc2c1)N1[C@H]2CC[C@H](c3cc(C(F)F)nc4ncnn34)[C@@H]1CC2 [Compound 309]" system="Human recombinant PDE3A (hPDE3A) (Homo sapiens, UniProt Q14432)" valueobserved=7.59

I = C[C@@H]1CCN(C(=O)c2cnc3ccccc3c2)C[C@H]1c1cc(C(F)F)nc2ncnn12 [Compound 324]
II = COc1cc(C(=O)N2CC[C@@H](C)[C@H](c3cc(C(F)F)nc4ncnn34)C2)c(C)cn1 [Compound 53]
III = C[C@@H]1CCN(C(=O)c2cc3ccccc3o2)C[C@H]1c1cc(C(F)F)nc2ncnn12 [Compound 69]
IV = C[C@@H]1CCN(C(=O)c2ccc(C3CC3)c(C3CC3)c2)C[C@H]1c1cc(C(F)F)nc2ncnn12 [Compound 226]
V = Cc1c(C(=O)N2CC[C@@H](C)[C@H](c3cc(C(F)F)nc4ncnn34)C2)ccc2c1OCO2 [Compound 145]
Req: # desc sort on IC50 across 5 compounds Use the labels to give the requested order.
Resp: II, V, III, I, IV
